- experimentDescription: PK study: plasma Δ^9-THC levels after single dose inhalation from cannabis flos with the metered-dose inhaler (MDI)
- appliedConditions: human, plasma, inhaled or intranasal, 3.08 mg, Cmax (Mean), mean of 8 participants; same single dose inhalation
observedProperty: Cmax (ng/mL)
Express the result in ng/mL but write the number alone.

Ask: # lookup: Cmax of CCCCCc1cc(O)c2c(c1)OC(C)(C)[C@@H]1CCC(C)=C[C@@H]21 [Δ^9-THC, Δ9-tetrahydrocannabinol]
Reply: 38

----------
- experimentDescription: PK study: plasma Δ^9-THC levels after single dose inhalation from cannabis flos with the metered-dose inhaler (MDI)
- appliedConditions: human, plasma, inhaled or intranasal, 3.08 mg, AUC (Mean), mean of 8 participants; same single dose inhalation
observedProperty: AUC (ng·h/mL)
Express the result in ng·h/mL but write the number alone.

Ask: # lookup: AUC of CCCCCc1cc(O)c2c(c1)OC(C)(C)[C@@H]1CCC(C)=C[C@@H]21 [Δ^9-THC, Δ9-tetrahydrocannabinol]
Reply: 10.1

----------
- experimentDescription: PK study: plasma Δ^9-THC levels after single dose inhalation from cannabis flos with the metered-dose inhaler (MDI)
- appliedConditions: human, plasma, inhaled, 3.08 mg
observedProperty: AUC(0-inf) (ng·h/mL)
Express the result in ng·h/mL but write the number alone.

Ask: # lookup: AUC(0-inf) of CCCCCc1cc(O)c2c(c1)OC(C)(C)[C@@H]1CCC(C)=C[C@@H]21 [Δ^9-THC, Δ9-tetrahydrocannabinol]
Reply: 10.1

----------
- experimentDescription: PK study: plasma Δ^9-THC levels after single dose inhalation from cannabis flos with the metered-dose inhaler (MDI)
- appliedConditions: human, plasma, inhaled or intranasal, 3.08 mg, Tmax (Mean), mean of 8 participants; same single dose inhalation
observedProperty: Tmax (min)
Express the result in min but write the number alone.

Ask: # lookup: Tmax of CCCCCc1cc(O)c2c(c1)OC(C)(C)[C@@H]1CCC(C)=C[C@@H]21 [Δ^9-THC, Δ9-tetrahydrocannabinol]
Reply: 3
